ASSAY_OVERVIEW: yeast display, Sf9 membrane polyspecificity reagent, FACS + sequencing; frameworks hold sequencing errors
MEASURED_PROPERTY: polyreactivity (PSR sort gate)

Below, each entry is followed by its recorded polyreactivity (PSR sort gate) result.
QVQLVESGGGLVQAGGSLRLSCAASGFIFAAYAMGWYRQAPGKERELVAAITWDGGSTYYADSVKGSFTISRDNAKNTVYLQMNSLKPEDTAVYYCAARRRHGYDYWGQGTQVTVSS
high polyreactivity
QDQHVESGGGLVQAGGSLRLSGAASGGTLWVNTMGWYRPAPGKERELVAAISRRGGSTYYADSVKGRFTISRDNAKNTVYLQMNSLKPEDTAVYYCAKGYSSHYWWAYDSWGQGTLVTVSS
high polyreactivity
QVQLVESGGGLVQAGGSLRLSCDASGFTVVIYTMGWYRQAPGKERELVAAINWSGASTYYADSVKGRFTISRDNAKNTVYLQINSLKPEDTAVYYCNRVYVQQDFPYKIYPYNYWGQGTQVTVSS
high polyreactivity
QVQLVESGGGLVQAGGSLRLSCAASGRISTTNAMGWYRQAPGKERELVASITSGGGTNYADSVKGRFTISRDNAKNTVYLQMNCLKPEDTAVYYCAKRRSYFLHSYYSYGYWGQGTQVTVSS
high polyreactivity
QVQLVESGGGLVQAGGSLRLSCAASGSIFGYYTMGWYIQAPGKERELVATITSGGSTYYADSVKGRFTISRDNAKNSVSLQMNSLKPEDTAVYYCNADRYWRVYWGQGTQVTVSS
high polyreactivity
QVQLVESGGGLVQAGGSLRLSCAASGFIFPFYAMGWYRQAPGKERELVAVIRTSSDRTYYADSVKGRFTISRDNAKNTVYLQMNSLKPEDTAVYYCAAETYRLFDYLGQGTQVTVSS
low polyreactivity
QVQLVESGGGLVQAGGSLRLSCAASGRTFGTNGMGWYRQAPGKERELVAVITWTGGSTYYADSVKGRFTISRDNAKNTVYLQMNSLKPEDTAVYYCAAKYSHLGYNYWGQGTQVTVSS
high polyreactivity
QVQLVESGGGLVQAGGSLRLSCAASGSTFSSYAMGWYRPAPGKERELVAAITSSGGSTYYADSVKGRFTISRDNAKNTVYLQMNSLKPEDTAVYYCAAADVIFWLYYYWGQGTQVTVSS
low polyreactivity
QVQLVESGGGLVQAGGSLRLSCAASGFTIRRNAMGWYRQAPGKERELVAAISDRGGSTYYADSVKGRFTISRDTAKNTVYFQMTSLKPEDTAVYYCAAEPYAGPELDYWGQGTQVTVSS
high polyreactivity
QVQLVESGGGLVQAGGSLRLSCAASGSTFVINAMGWYRQAPGKERELVAAISYDGGGTYYADSVKGRFTISRDNAKNTVYLQMNSLKPEDTAGYYCAAENFYPYTYYASDYWGQGTHVTVSS
high polyreactivity

So what's the measured polyreactivity (PSR sort gate) for this one? QVQLVESGGGLVQAGGSLRLSCAASGITFYEYAMGWYRQAPGKERELVATITSGGNTNYADSVKGRFTISRDNAKNTVYLQMNSLKPEDTAVYYCNKEWDGDGYTDDWDYDYWGQGTQVTVSS
low polyreactivity
